Measured values drawn from paper PMC5370111 for this set.

Target: c-Myc* (b-HLH-LZ of c-Myc) (UniProt P01106 368-451)
Sequence (P01106 368-451): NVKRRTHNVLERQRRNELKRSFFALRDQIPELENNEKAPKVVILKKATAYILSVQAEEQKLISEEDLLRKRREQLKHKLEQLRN
Test: fluorescence anisotropy; 37 C; apparent 1/KBinding of dimer; 1/KDimer 0.48 ± 0.5 nM; FA: 15 nM dsDNA, 50 mM Tris, 50 mM KCl, pH 7.5, 37 C; EMSA: 250 nM DNA, 20 mM Tris-HCl, 75 mM KCl, 2.5 mM TCEP, 25 ug/mL BSA, 5% glycerol, pH 8.0, room temp; CD: 25 mM KH2PO4, 25 mM Na2HPO4, 50 mM KCl, 1 mM TCEP, pH 6.8
Details: protein: recombinant; chain copies: 2; label: fluorescein; blunt, self-complementary palindrome
MEASURE: Kd (nM)
State just the number; it will be interpreted in nM.

Record E-box, fluorescein-labeled (dsDNA, internal fluorescein-dT (iFluorT) at position 4) DNA 1: GAGTAGCACGTGCTACTC DNA 2: GAGTAGCACGTGCTACTC . Reported Kd: 70
